Tested on: rice
assayExplanation: Crop safety study in greenhouse
Type: in vivo
recordedConditions: 7.5-37.5 g a.i./hm^2; pre-emergence and post-emergence application

- compound: "CC(C)C(=O)OCC1(C)CC(c2cc(-n3c(=O)cc(C(F)(F)F)n(C)c3=O)c(F)cc2Cl)=NO1 (stereo not shown) [Compound 46]"
  systemTested: "rice"
  Crop safety, rice: "good safety"
- compound: "Cn1c(C(F)(F)F)cc(=O)n(-c2cc(C3=NOC(C)(COC(=O)COc4ccc(Cl)cc4Cl)C3)c(Cl)cc2F)c1=O (stereo not shown) [Compound 83]"
  systemTested: "rice"
  Crop safety, rice: "good safety"
- compound: "Cn1c(C(F)(F)F)cc(=O)n(-c2cc(C3=NOC(C)(COC(=O)C4CC4)C3)c(Cl)cc2F)c1=O (stereo not shown) [Compound 45]"
  systemTested: "rice"
  Crop safety, rice: "good safety"
- compound: "CC(=O)OCC1(C)CC(c2cc(-n3c(=O)cc(C(F)(F)F)n(C)c3=O)c(F)cc2Cl)=NO1 (stereo not shown) [Compound 43]"
  systemTested: "rice"
  Crop safety, rice: "good safety"

====

Test system: Setaria glauca (L.) Beauv.
assayExplanation: Bioassay of herbicidal activity in greenhouse (further screening)
Format: in vivo
recordedConditions: post-emergence; dose 150 g a.i./hm^2
List of Growth inhibition rate, Post-emergence treatment, Setaria glauca (L.) Beauv. values.
readoutName: Growth inhibition rate, Post-emergence treatment, Setaria glauca (L.) Beauv. (%)

- molecule: "CCCS(=O)(=O)OCC1(C)CC(c2cc(-n3c(=O)cc(C(F)(F)F)n(C)c3=O)c(F)cc2Cl)=NO1 (stereo not drawn)"
  reportedResult: 60
- molecule: "Cn1c(C(F)(F)F)cc(=O)n(-c2cc(C3=NOC(C)(COC(=O)CCc4ccccc4)C3)c(Cl)cc2F)c1=O (stereo not drawn)"
  reportedResult: 75
- molecule: "CCCCOC(=O)C1(C)CC(c2cc(-n3c(=O)cc(C(F)(F)F)n(C)c3=O)ccc2Cl)=NO1 (stereo not drawn)"
  reportedResult: 70
- molecule: "Cn1c(C(F)(F)F)cc(=O)n(-c2cc(C3=NOC(C)(C(N)=O)C3)c(Cl)cc2F)c1=O (stereo not drawn)"
  reportedResult: 10
- molecule: "Cn1c(C(F)(F)F)cc(=O)n(-c2cc(C3=NOC(C)(COC(=O)CCl)C3)c(Cl)cc2F)c1=O (stereo not drawn)"
  reportedResult: 65
- molecule: "CCOC(=O)C1(C)CC(c2cc(-n3c(=O)cc(C(F)(F)F)n(C)c3=O)ccc2Cl)=NO1 (stereo not drawn)"
  reportedResult: 90

====

System: Setaria glauca (L.) Beauv.
assayExplanation: Bioassay of herbicidal activity in greenhouse (further screening)
Type: in vivo
recordedConditions: post-emergence; dose 15 g a.i./hm^2
Experimental: Determination of herbicidal activity of compounds of the present invention against weeds was carried out by the following procedures: Seeds of monocotyledonous and dicotyledonous weeds were sown in nutrition soil in paper pot (7 cm diameter), covered with soil in 1 cm and grown in the greenhouse under good growth conditions (temperature, atmospheric humidity, water supply). […]
readoutName: Growth inhibition rate, Post-emergence treatment, Setaria glauca (L.) Beauv. (%)

- compound: "CC(C)COC(=O)C1(C)CC(c2cc(-n3c(=O)cc(C(F)(F)F)n(C)c3=O)c(F)cc2Cl)=NO1 (stereo not shown)"
  systemTested: "Setaria glauca (L.) Beauv."
  unitSymbol: "%"
  reportedResult: 75
- compound: "Cn1c(C(F)(F)F)cc(=O)n(-c2cc(C3=NOC(C)(COC(=O)COc4ccc(Cl)cc4Cl)C3)c(Cl)cc2F)c1=O (stereo not shown)"
  systemTested: "Setaria glauca (L.) Beauv."
  unitSymbol: "%"
  reportedResult: 45
- compound: "CC(C)OC(=O)C1(C)CC(c2cc(-n3c(=O)cc(C(F)(F)F)n(C)c3=O)c(F)cc2Cl)=NO1 (stereo not shown)"
  systemTested: "Setaria glauca (L.) Beauv."
  unitSymbol: "%"
  reportedResult: 100
- compound: "COCCOC(=O)C1(C)CC(c2cc(-n3c(=O)cc(C(F)(F)F)n(C)c3=O)c(F)cc2Cl)=NO1 (stereo not shown)"
  systemTested: "Setaria glauca (L.) Beauv."
  unitSymbol: "%"
  reportedResult: 98
